- Test system: U2OS
- ASSAY DETAILS: Incucyte cell viability with U2OS; also: filed as whole numbers so only -1 and 0 and 1 occur
- Assay type: toxicity, cell-based
- CONDITION LABEL: human, 12 h, 10 µM, compound concentration 10 uM, replicate number 1, timepoint 12 hours

# COMPOUND, Growth Rate
rows = [
    ("CC(C)CC(=O)Nc1[nH]nc2c1CN(C(=O)C1CCN(C)CC1)C2(C)C", 0),
    ("Cc1ccccc1C(=O)Nc1ccc(C(=O)N2CCCC(O)c3cc(Cl)ccc32)c(C)c1 (configuration not stated)", 0),
    ("O=C(O)CC/C=C\\C[C@@H]1CO[C@H](c2ccccc2Cl)O[C@@H]1c1ccccc1O", 1),
    ("O=C(c1cc2c(cc1F)OC(c1ccc(F)cc1)(c1ccc(Cl)cc1Cl)O2)N1CCOCC1 (configuration not stated)", 0),
    ("Cc1cc(-n2nc(Cc3cc(F)cc(C(F)(F)F)c3)nc2C)ccc1C(N)=O", 0),
    ("C[C@H](N)COC(=O)[C@@H](CCCCN)NC(=O)Cc1c(-c2ccc3ccccc3c2)[nH]c2c1ccc1ccccc12", 1),
    ("COc1ccc(-c2ccc3ncc4c(c3c2)n(-c2ccc(N3CCNCC3)c(C(F)(F)F)c2)c(=O)n4C)cn1.O=C(O)/C=C\\C(=O)O", 0),
]

* * *

As shown below, each of these compounds has a reported Population Fragmented Nuclei (%) value.
- System: U2OS
- ASSAY DETAILS: Multiplex assay against U2OS
- Type: toxicity, cell-based
- CONDITION LABEL: human, 48 h, 1 µM, compound concentration 1 uM, replicate 2

# COMPOUND, UNIT STRING, Population Fragmented Nuclei (%)
records = [
    ("Cc1c[nH]c2nccc(Oc3c(F)cc(Nc4cc(Cl)nc(N)n4)cc3F)c12", "%", 15),
    ("COc1cc2ncn(-c3cc(OCc4ccccc4C(F)(F)F)c(C(N)=O)s3)c2cc1OC [GW843682X]", "%", 9),
    ("CC(C)c1noc(N2CCC(COc3ccc(-c4ccc(S(C)(=O)=O)cc4)nc3)CC2)n1", "%", 11),
    ("CC(C)(C)NC[C@H](O)COc1nsnc1N1CCOCC1", "%", 5),
    ("Cc1ccc2c(c1)c1c(n2CCc2ccc(C)nc2)CCN(C)C1 [LATREPIRDINE]", "%", 17),
    ("O=c1cc(N2CCOCC2)oc2c(-c3cccc4c3sc3ccccc34)cccc12", "%", 16),
    ("CCCSc1nc(N[C@@H]2C[C@H]2c2ccc(F)c(F)c2)c2nnn([C@@H]3C[C@H](OCCO)[C@@H](O)[C@H]3O)c2n1", "%", 4),
    ("COc1ccc(-c2ccc3ncc4c(c3c2)n(-c2ccc(N3CCNCC3)c(C(F)(F)F)c2)c(=O)n4C)cn1.O=C(O)/C=C\\C(=O)O", "%", 25),
]

* * *

- Test system: HEK-293T
- ASSAY DETAILS: Incucyte cell viability with HEK293T; also: filed as whole numbers so only -1 and 0 and 1 occur
- Type: toxicity, cell-based
- CONDITION LABEL: human, 6 h, 10 µM, compound concentration 10 uM, replicate number 2, timepoint 6 hours

# LINE NOTATION, Growth Rate
records = [
    ("Cc1noc([C@H]2C[C@@H](c3ccc(C(F)(F)F)cc3)CN(C(=O)N3CCS(=O)(=O)C3)C2)n1", 1),
    ("Cc1cnc(-c2cc(Cl)ccc2F)cc1-n1c(=O)n(CC(N)=O)c2ccccc21", 0),
    ("CC(C)NC(=O)N1CC[C@H](NC2=Nc3cc(F)ccc3N(CC(F)F)c3ccc(Cl)cc32)C1", 0),
    ("O=C1CCc2cc(Nc3cc(OC4CCOCC4)c([N+](=O)[O-])cc3Cl)ccc2N1", 1),
]
